System: EKVX NSCLC
test.protocol: NCI tumour cell line growth inhibition, 48 h
Assign TGI to each entry below.

Notebook entry, EKVX NSCLC assay: TGI of `NCCCC[C@@H]1NC(=O)[C@H](CC(=O)O)NC(=O)CNC(=O)[C@H](CCCN=C(N)N)NC(=O)[C@@H](N)CSSC[C@@H](C(=O)O)NC(=O)[C@H](CC(=O)O)NC(=O)[C@@H]2CCCN2C(=O)CNC1=O` = ?
> 100 µM

Moving on to the next molecule: `C[C@]12CC[C@H]3[C@@H](CC=C4C[C@@H](N5CCCC5)CC[C@@]43C)[C@@H]1C/C(=C\c1cccc(OCCN3CCOCC3)c1)[C@@H]2O`
> 100 µM

Try `COc1ncc(Nc2ncc([C@@H](C)N3CCN(S(C)(=O)=O)CC3)cc2-c2nc(C)nc(N)n2)cc1F` next.
12.6 µM
